- Assayed System: Neuronal acetylcholine receptor; alpha3/beta4 (Homo sapiens, UniProt P30926+P32297)
- Sequence (P30926 whole entry): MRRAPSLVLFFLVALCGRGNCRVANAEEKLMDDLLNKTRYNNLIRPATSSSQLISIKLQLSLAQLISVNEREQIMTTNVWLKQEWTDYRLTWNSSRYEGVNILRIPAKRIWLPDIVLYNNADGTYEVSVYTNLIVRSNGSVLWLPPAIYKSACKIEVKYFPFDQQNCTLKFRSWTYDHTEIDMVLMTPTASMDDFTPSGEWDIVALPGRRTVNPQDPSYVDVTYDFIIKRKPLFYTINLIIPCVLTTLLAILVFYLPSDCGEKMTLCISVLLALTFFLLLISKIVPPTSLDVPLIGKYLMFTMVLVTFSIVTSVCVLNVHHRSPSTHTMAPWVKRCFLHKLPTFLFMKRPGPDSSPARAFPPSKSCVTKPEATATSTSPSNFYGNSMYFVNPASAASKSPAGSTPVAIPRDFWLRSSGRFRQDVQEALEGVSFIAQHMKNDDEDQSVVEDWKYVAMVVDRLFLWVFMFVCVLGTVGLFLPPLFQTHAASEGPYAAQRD
- Sequence (P32297 whole entry): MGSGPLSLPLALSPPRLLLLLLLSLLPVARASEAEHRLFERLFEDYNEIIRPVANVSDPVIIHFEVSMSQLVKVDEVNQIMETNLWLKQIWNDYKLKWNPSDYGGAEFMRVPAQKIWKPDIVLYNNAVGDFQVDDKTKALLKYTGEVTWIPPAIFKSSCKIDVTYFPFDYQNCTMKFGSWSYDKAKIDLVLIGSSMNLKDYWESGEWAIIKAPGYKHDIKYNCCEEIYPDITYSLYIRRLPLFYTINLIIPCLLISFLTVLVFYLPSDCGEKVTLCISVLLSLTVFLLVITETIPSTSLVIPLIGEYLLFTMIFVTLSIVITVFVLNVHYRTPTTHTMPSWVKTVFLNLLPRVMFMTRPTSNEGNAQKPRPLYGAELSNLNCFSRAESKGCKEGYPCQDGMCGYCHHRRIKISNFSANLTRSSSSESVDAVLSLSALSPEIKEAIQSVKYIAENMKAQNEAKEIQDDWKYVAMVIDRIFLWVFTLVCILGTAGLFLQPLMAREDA
- Measurement Notes: Antagonist activity at human alpha3beta4 nAChR expressed in Xenopus laevis oocytes assessed as reduction in acetylcholine-induced peak current at -60 mV holding potential by electrophysiology method
Readout Kind: IC50 (µM)

            compound_structure_string                            assayed_system  numeric_readout
0  CN1CCC=C(c2cnc(F)c(-c3ccccc3)c2)C1  Neuronal acetylcholine receptor; alpha3/beta4 (Homo sapiens, UniProt P30926+P32297)               20

###

- Assayed System: Neuronal acetylcholine receptor; alpha3/beta4 (Homo sapiens, UniProt P30926+P32297)
- Measurement Notes: Antagonist activity at human alpha3beta4 nAChR expressed in Xenopus laevis oocytes assessed as reduction in acetylcholine-induced peak current at -60 mV holding potential by electrophysiology method
pKi: −log10 of the molar value.
Readout Kind: pKi

>>> print(df.to_string())
            compound_structure_string  numeric_readout
0  CN1CCC=C(c2cnc(F)c(-c3ccccc3)c2)C1             6.91

###

- Assayed System: Neuronal acetylcholine receptor
- Measurement Notes: Binding affinity to nAChR in rat brain membranes
pKd: −log10 of the molar value.
Readout Kind: pKd

   compound_structure_string                   assayed_system  readout_kind  numeric_readout
0   CN1CCC=C(c2ccc(Cl)nc2)C1  Neuronal acetylcholine receptor           pKd             8.66
